The reported numbers originate from patent US20200283478A1.

# tested system: T1, His-tagged, full-length PCSK9 (human, UniProt Q8NBP7 31-692)
# T1 construct: secreted PCSK9 is autocatalytically cleaved into prodomain and catalytic domain + CRD (from S153), which stay associated; also called His-PCSK9; proprotein convertase subtilisin/kexin type 9; not shown: His tag
# T1 sequence (Q8NBP7 31-692 limits assumed): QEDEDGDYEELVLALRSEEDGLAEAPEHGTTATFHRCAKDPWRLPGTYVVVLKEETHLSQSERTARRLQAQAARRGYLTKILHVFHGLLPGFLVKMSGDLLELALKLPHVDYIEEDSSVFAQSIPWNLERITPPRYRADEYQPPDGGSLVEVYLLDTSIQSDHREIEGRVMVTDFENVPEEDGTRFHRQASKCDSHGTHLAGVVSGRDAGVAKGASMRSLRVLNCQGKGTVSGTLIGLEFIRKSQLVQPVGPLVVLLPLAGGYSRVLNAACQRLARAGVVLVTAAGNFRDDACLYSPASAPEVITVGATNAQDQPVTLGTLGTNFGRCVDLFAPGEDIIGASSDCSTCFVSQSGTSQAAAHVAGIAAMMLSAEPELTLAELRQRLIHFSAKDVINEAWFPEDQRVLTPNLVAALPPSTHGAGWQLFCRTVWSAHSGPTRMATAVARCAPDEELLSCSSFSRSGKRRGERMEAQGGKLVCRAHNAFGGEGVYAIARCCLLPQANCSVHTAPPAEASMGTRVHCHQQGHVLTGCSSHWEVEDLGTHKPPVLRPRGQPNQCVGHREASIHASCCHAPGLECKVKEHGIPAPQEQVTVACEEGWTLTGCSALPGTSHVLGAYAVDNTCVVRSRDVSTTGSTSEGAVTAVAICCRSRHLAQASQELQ
# protocol summary: TR-FRET competition (PCSK9/EGF(A) assay); competitor EGF(A)-Fc;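 note: proximity signal from anti-His APC on PCSK9 paired with anti-Fc europium on the Fc ligand, read as normalized TR-FRET ratio across compound dilutions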
Bridge positions count the residues as written; N and C are the ends.
parameter measured: IC50

[ask] Look at this binder and give its reported IC50. Ac-CFIPWNLQRIGLLC-NH2 (disulfide 1-14; SMILES CC[C@H](C)[C@@H]1NC(=O)[C@H](CCCNC(=N)N)NC(=O)[C@H](CCC(N)=O)NC(=O)[C@H](CC(C)C)NC(=O)[C@H](CC(N)=O)NC(=O)[C@H](Cc2c[nH]c3ccccc23)NC(=O)[C@@H]2CCCN2C(=O)[C@H]([C@@H](C)CC)NC(=O)[C@H](Cc2ccccc2)NC(=O)[C@@H](NC(C)=O)CSSC[C@@H](C(N)=O)NC(=O)[C@H](CC(C)C)NC(=O)[C@H](CC(C)C)NC(=O)CNC1=O) [Compound 31 (Ac-CFIPWNLQRIGLLC-NH2)]
[reply] > 50 µM
